Source of measurements: PubChem BioAssay (NCI)

- Tested on: SK-MEL-5 melanoma
- TEST DETAILS: NCI-60 one-dose screen, 48 h (100 = growth as untreated, 0 = no growth, -100 = all killed)
- PARTICULARS: 10 µM unless noted
This is part of a sample that, as a whole, favours compounds with a hit. Of some 83,000 tested, about 20% had one in any assay.
QUANTITY MEASURED: growth (%)
Answers are plain numbers, in %.

Some solved entries appear below for comparison.
# COMPOUND, growth [%]
rows = [
    ("CCCCn1c(Cc2ccc(Cl)cc2)nc2cc(OC)c(OC)cc2c1=O", 41),
    ("Cc1nn(-c2ccccc2)c2nc3c(nc12)C(=O)CCC3", 88.3),
    ("C/C(=N/N=C(N)N)c1ccc(N)cc1", 107),
    ("COc1ccc(-c2oc3cc(O)c(OC)c(O)c3c(=O)c2OC)cc1O", 8.22),
    ("Cc1c(C(N)=O)sc2ncn(Cc3ccccc3)c(=O)c12", 103),
    ("C=C(C)[C@@H]1C[C@H](O)Cc2cc(Cl)cc(Cl)c2N1", 102),
    ("CC(=O)c1cc(C(=O)c2ccc3c(c2)Sc2ccccc2N3)c2c(C)cc(C)cn12", -36.5),
    ("CN1C(=O)/C(=C/c2nc(-c3cccc(F)c3)n3ccccc23)c2ccccc21", 64),
    ("CCN(CC)CCOc1ccccc1-n1c(C)ccc1-c1ccccc1", 90.8),
    ("COc1ccc2c(c1)[nH]c(=O)c1c3cc(OC)c(OC)cc3cn21", -6.64),
]

Parameter requested: growth. Apply to each item below.
1. NNC(=O)C1CC2c3ccccc3C1c1ccccc12 (configuration not stated)
2. COc1cc2c(cc1OCCCCCn1c(-c3ccc(OCc4ccccc4)cc3)nc3cc(N4CCOCC4)ccc31)N=C[C@@H]1CCCN1C2=O

Reply |
1. 110
2. -66.7

====

So I've got a bunch of compounds here, and I need their growth values.
- Tested on: HCT-116 colon
- TEST DETAILS: NCI-60 one-dose screen, 48 h (100 = growth as untreated, 0 = no growth, -100 = all killed)
- PARTICULARS: 10 µM unless noted
This is part of a sample that, as a whole, favours compounds with a hit. Of some 83,000 tested, about 20% had one in any assay.
Numbers only, in %.

# COMPOUND, growth, %
measured = [
    ("CC(=O)c1nc2ccccc2n1CCn1cc(CC(N)C(=O)O)c2ccccc21 (stereo not drawn)", 106),
    ("Cc1cc(C(C)(C)C)cc(C)c1CC1=NCCN1", 112),
    ("CCCCc1nc(Cl)c(CO)n1Cc1ccc(-c2ccccc2-c2nn[nH]n2)cc1", 102),
    ("NC(N)=NN=c1c(=O)c2ccccc2c1=O", -37.8),
    ("COc1ccc(-c2cncn2-c2ccc(-c3nc4cc(OC)c(OC)c(OC)c4s3)cc2)cc1N", 36.3),
    ("Cc1nnc(Nc2ccc(NC(=O)Nc3ccc(Cl)cc3)cc2)c2ccccc12", 7.67),
]

Parameter requested: growth. Apply to each item below.
1. CN1CCCC1c1cccnc1 (stereo not drawn)
2. O=C(OC[C@H]1O[C@H](OC(=O)c2cc(O)c(O)c(OC(=O)c3cc(O)c(O)c(O)c3)c2)[C@H](OC(=O)c2cc(O)c(O)c(OC(=O)c3cc(O)c(O)c(O)c3)c2)[C@@H](OC(=O)c2cc(O)c(O)c(OC(=O)c3cc(O)c(O)c(O)c3)c2)[C@@H]1OC(=O)c1cc(O)c(O)c(OC(=O)c2cc(O)c(O)c(O)c2)c1)c1cc(O)c(O)c(OC(=O)c2cc(O)c(O)c(O)c2)c1
3. CCCc1nn(C)c2c(=O)[nH]c(-c3cc(S(=O)(=O)N4CCN(C)CC4)ccc3OCC)nc12

Reply |
1. 104
2. 11.5
3. 98.8

Parameter requested: growth. Apply to each item below.
1. CCC[C@H](N[C@@H](C)C(=O)N1[C@H](C(=O)O)C[C@@H]2CCCC[C@@H]21)C(=O)OCC
2. O=C(Nc1ccc(Cl)cc1)Nc1ccc(Oc2nncc3ccccc23)cc1

Reply |
1: 106; 2: -56.9

====

- Test system: NCI-H226 lung
- TEST DETAILS: NCI-60 one-dose screen, 48 h (100 = growth as untreated, 0 = no growth, -100 = all killed)
- PARTICULARS: 10 µM unless noted
The panel holds about 83,000 compounds, 20% with a hit somewhere; the sample as a whole holds those more often.
So I've got a bunch of molecules here, and I need their growth values.
Numbers only, in %.

Some solved entries appear below for comparison.
# MOLECULE, MEASURED TARGET, QUANTITY MEASURED, VALUE UNIT, NUMERIC VALUE
measured = [
    ("Cc1c(C(N)=O)sc2nc(SCC(=O)Nc3ccc(Cl)cc3)n(-c3ccccc3)c(=O)c12", "NCI-H226 lung", "growth", "%", 108),
    ("Nc1cc(Cl)c(S(N)(=O)=O)cc1S(N)(=O)=O", "NCI-H226 lung", "growth", "%", 92.8),
    ("O=C(Nc1cccc2ccccc12)c1cc2c(cc1Br)OCO2", "NCI-H226 lung", "growth", "%", 81),
]

Parameter requested: growth. Apply to each item below.
1. CCN(CC)c1ccc(CN(CC(=O)c2ccc(Cl)c(Cl)c2)Cc2ccccc2)cc1
2. Cc1nc2c(O)cccc2cc1CO
3. CC(CCC(=O)O)(NC(=O)c1ccc([N+](=O)[O-])cc1)C(=O)O (stereo unspecified)
4. CCOC(=O)/C(=C/c1ccccc1)C(=O)c1ccccc1

Reply |
1: 90.9; 2: 114; 3: 111; 4: 84.3

Parameter requested: growth. Apply to each item below.
1. C=C(C[C@](O)(C(=O)/C=C/c1ccc(Cl)cc1)C(=O)OC)c1ccccc1
2. CCN1C[C@@H](C)n2c(c(O)c3c(=O)n(Cc4ccc(F)c(Cl)c4)nc(C(=O)NC)c32)C1=O
3. CC(c1cc(Cl)ccc1O)c1cc(Cl)ccc1O
4. Clc1cccc(Cc2cn3cc(-c4ccccc4)nc3s2)c1
5. NC(N)=N/N=C(/c1ccccc1)c1ccc(Cl)cc1
6. c1coc([C@@H]2C[C@@H]3Cc4ccc5ccccc5c4N2O3)c1

Reply |
1: 89.7; 2: 26.4; 3: 82.5; 4: 73; 5: 88.8; 6: 107

Parameter requested: growth. Apply to each item below.
1. COc1cc2c(c(OC)c1OC)CCc1cnoc1-2
2. C=C1c2c(C)nn(-c3ccc(C#CCOC4OC(CO)C(O)C(O)C4O)cc3)c2N(C)C23C[C@H]1C1(C)c4c(C)nn(-c5ccc(C#CCOC6OC(CO)C(O)C(O)C6O)cc5)c4N(C)C(C)(C[C@H]12)C3 (stereo partly specified)
3. COc1ccc2nc3cc(Cl)ccc3c(Nc3cc(C(C)C)c(O)cc3C)c2c1
4. O=[P@@]1(c2ccccc2)O[C@H](COCc2ccccc2)[C@@H](OCc2ccccc2)[C@H](OCc2ccccc2)[C@H]1NCc1ccccc1

Reply |
102
23.4
79.5
40.6

====

- Test system: OVCAR-4 ovarian
- TEST DETAILS: NCI-60 one-dose screen, 48 h (100 = growth as untreated, 0 = no growth, -100 = all killed)
- PARTICULARS: 10 µM unless noted
About 83,000 compounds went through this panel and 20% of them were active in at least one assay; those are over-represented in the sample as a whole.
So I've got a bunch of compounds here, and I need their growth values.
One number for each entry, in %.

Some solved entries appear below for comparison.
# COMPOUND, VALUE UNIT, NUMERIC VALUE
measured = [
    ("c1coc([C@@H]2C[C@@H]3Cc4ccc5ccccc5c4N2O3)c1", "%", 92.4),
    ("Cc1ccc2c(c1)O/C(=C\\c1ccc([N+](=O)[O-])o1)C2=O", "%", 5.62),
    ("C[n+]1ccc(Nc2ccc(NC(=O)c3ccc(Nc4cc[n+](C)c5ccc(N)cc45)cc3)cc2)cc1", "%", 103),
]

Parameter requested: growth. Apply to each item below.
1. CCCCN(CCCC)CCCOC(=O)c1ccc(N)cc1
2. COc1ccc(-c2oc3cc(O)c(OC)c(O)c3c(=O)c2OC)cc1O

Reply |
1: 84.2; 2: 65.6

Parameter requested: growth. Apply to each item below.
1. O=C(/C=C/c1cc2ccccc2[nH]c1=O)c1ccc(Cl)cc1
2. O=C(Nc1cccc(C(F)(F)F)c1)Nc1ccc(OCc2nnc(-c3ccc(Cl)cc3)o2)c(F)c1

Reply |
[43.8, 75]

====

- Tested on: 786-0 renal
- TEST DETAILS: NCI-60 one-dose screen, 48 h (100 = growth as untreated, 0 = no growth, -100 = all killed)
- PARTICULARS: 10 µM unless noted
About 83,000 compounds went through this panel and 20% of them were active in at least one assay; those are over-represented in the sample as a whole. Calls of active or inactive are those of the source. Rule for the calls: active = growth percent below 10; inactive = the rest.
QUANTITY MEASURED: growth

Some solved entries appear below for comparison.
# COMPOUND, growth
data = [
    ("CC1=CSC2=NCCN12", "104% (inactive)"),
    ("c1ccc2c(c1)[nH]c1c2cc[n+]2cc3c(cc12)CCCC3", "48.7% (inactive)"),
    ("COc1cccc2c1O/C(=C\\c1c([N+](=O)[O-])ncn1C)C2=O", "96.1% (inactive)"),
]

Parameter requested: growth. Apply to each item below.
1. O=C(Nc1ccc(Nc2ccncc2)cc1)c1ccc(Nc2ccnc3ccc([N+](=O)[O-])cc23)cc1[N+](=O)[O-]
2. O=C(NCCc1ccccc1)C1CCC(=O)N1Cc1ccc(Br)cc1 (centres undefined)

Reply |
50.1% (inactive)
105% (inactive)

Parameter requested: growth. Apply to each item below.
1. CCC(C)(C)C(=O)O[C@H]1C[C@@H](C)C=C2C=C[C@H](C)[C@H](CC[C@@H]3C[C@@H](O)CC(=O)O3)[C@H]21
2. C[C@]12CC[C@@H]3c4ccc(O)c([N+](=O)[O-])c4CC[C@H]3[C@@H]1CC[C@@H]2NS(=O)(=O)c1ccc(C(F)(F)F)cc1
3. COc1cc(C2CC(c3ccc(C)cc3)=NN2C(C)=O)ccc1Oc1ccnc2cc(Cl)ccc12 (centres undefined)
4. CCCCCCCCCCSc1ncnc2nc[nH]c12
5. Cc1nn(-c2ccccc2)c(Cl)c1C(CC(=O)c1ccc(Cl)cc1)CC(=O)c1ccc(Cl)cc1
6. Oc1ccc(Cc2ccc(O)c(C3CC(c4ccc(Cl)cc4)=NN3)c2)cc1C1CC(c2ccc(Cl)cc2)=NN1 (centres undefined)
7. CCOc1cc(-c2ccc[nH]2)[nH]c1/C=C1\N=C(C)C(C(=O)OC)=C1C
8. COc1ccc(-n2nc3c(c2-c2ccc(OC)c(OC)c2)-c2oncc2CC3)cc1

Reply |
1: 51.5% (inactive); 2: 43% (inactive); 3: 21.9% (inactive); 4: 71.3% (inactive); 5: 81.8% (inactive); 6: 18.2% (inactive); 7: -50.2% (active); 8: 78% (inactive)

Parameter requested: growth. Apply to each item below.
1. Cc1ccccc1-c1cc(Cc2ccccc2O)c(=O)[nH]n1
2. Cc1nn(-c2ccccc2)c2nc(Cl)c(/C=C/C(=O)c3ccccc3)c(-c3ccccc3)c12
3. O=C(C(=O)N1CCOCC1)c1ccc(OC2OC(CO)C(O)C(O)C2O)cc1 (centres undefined)
4. C[C@]12CC[C@@H]3c4ccc(O)c([N+](=O)[O-])c4CC[C@H]3[C@@H]1CC[C@@H]2NS(=O)(=O)c1cccc(Br)c1
5. COC1CC2CCC(C)C(O)(O2)C(=O)C(=O)N2CCCCC2C(=O)OC(C(C)CC2CCC(O)C(OC)C2)CC(=O)C(C)C=C(C)C(O)C(OC)C(=O)C(C)CC(C)/C=C/C=C/C=C1C (centres undefined)
6. Clc1cc(Cl)c(OCC#CI)cc1Cl

Reply |
1: 98.9% (inactive); 2: 106% (inactive); 3: 103% (inactive); 4: 42.8% (inactive); 5: 43% (inactive); 6: 98.9% (inactive)
